Target: Cyno TfR apical permuted N-term Avi-His (cynomolgus)
Sequence (chain, as listed by the source limits assumed): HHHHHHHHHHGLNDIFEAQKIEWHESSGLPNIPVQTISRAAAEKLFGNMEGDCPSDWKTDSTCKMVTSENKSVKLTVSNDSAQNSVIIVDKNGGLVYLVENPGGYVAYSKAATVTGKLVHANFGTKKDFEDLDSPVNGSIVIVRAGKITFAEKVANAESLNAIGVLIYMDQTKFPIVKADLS
Assay: SPR (Carterra LSA), 2+2 captured
# reported pKd; entries follow
Convention used: pKd is expressed as -log10 of the molar concentration.

Consider the worked cases shown below.
{"BINDER": "TFR.15.WH8.1.42A.L1 2+2 anti-TfR bispecific antibody (bispecific antibody, part only; not given: isotype IgG backbone and linker, not shown: another chain or arm of the molecule; a dimerising Fc or GST; large carriers; small tags and cut ends) scFv: QVQLVQSGAEVKKPGASVKVSCKASGYTFTSYYMHWVRQAPGQGLEWMGNIYPGSGSSNYAQKFQGRVTMTRDTSTSTVYMELSSLRSEDTAVYYCTRSSYYGNFDTMDNWGQGTTVTVSSSPNSASHSGSAPQTSSAPGSQEIVLTQSPATLSLSPGERATLSCRASSSIRAMNWYQQKPGQAPRRLIYDTSNRATGIPARFSGSGSGTDFTLTISSLEPEDFAVYYCHQRSSYPWTFGGGTKVEIK", "pKd": 7.00}
{"BINDER": "TFR.15.WH8.1.42S 2+2 anti-TfR bispecific antibody (bispecific antibody, part only; not given: isotype IgG backbone and linker, not shown: another chain or arm of the molecule; a dimerising Fc or GST; large carriers; small tags and cut ends) scFv: QVQLVQSGAEVKKPGASVKVSCKASGYTFTSYYMHWVRQAPGQGLEWMGNIYPGSGSSNYAQKFQGRVTMTRDTSTSTVYMELSSLRSEDTAVYYCTRSSYYGNFDTMDNWGQGTTVTVSSGGSEGKSSGSGSESKSTGGSEIVLTQSPATLSLSPGERATLSCRASSSIRSMNWYQQKPGQAPRRLIYDTSNRATGIPARFSGSGSGTDFTLTISSLEPEDFAVYYCHQRSSYPWTFGGGTKVEIK", "pKd": 6.16}

Exercise: Give the measured pKd of TFR.15.WH8.1.24H 2+2 anti-TfR bispecific antibody (bispecific antibody, part only; not given: isotype IgG backbone and linker, not shown: another chain or arm of the molecule; a dimerising Fc or GST; large carriers; small tags and cut ends) scFv: QVQLVQSGAEVKKPGASVKVSCKASGYTFTSYYMHWVRQAPGQGLEWMGNIYPGSGSSNYAQKFQGRVTMTRDTSTSTVYMELSSLRSEDTAVYYCTRSHYYGNFDTMDNWGQGTTVTVSSGGSEGKSSGSGSESKSTGGSEIVLTQSPATLSLSPGERATLSCRASSSIRYMNWYQQKPGQAPRRLIYDTSNRATGIPARFSGSGSGTDFTLTISSLEPEDFAVYYCHQRSSYPWTFGGGTKVEIK .
Key: 8.59

Exercise: Let us now turn to TFR.15.WH8.1.42Q 2+2 anti-TfR bispecific antibody (bispecific antibody, part only; not given: isotype IgG backbone and linker, not shown: another chain or arm of the molecule; a dimerising Fc or GST; large carriers; small tags and cut ends) scFv: QVQLVQSGAEVKKPGASVKVSCKASGYTFTSYYMHWVRQAPGQGLEWMGNIYPGSGSSNYAQKFQGRVTMTRDTSTSTVYMELSSLRSEDTAVYYCTRSSYYGNFDTMDNWGQGTTVTVSSGGSEGKSSGSGSESKSTGGSEIVLTQSPATLSLSPGERATLSCRASSSIRQMNWYQQKPGQAPRRLIYDTSNRATGIPARFSGSGSGTDFTLTISSLEPEDFAVYYCHQRSSYPWTFGGGTKVEIK
Key: 7.40

Exercise: Let us now turn to TFR.15.WH8.1.24N 2+2 anti-TfR bispecific antibody (bispecific antibody, part only; not given: isotype IgG backbone and linker, not shown: another chain or arm of the molecule; a dimerising Fc or GST; large carriers; small tags and cut ends) scFv: QVQLVQSGAEVKKPGASVKVSCKASGYTFTSYYMHWVRQAPGQGLEWMGNIYPGSGSSNYAQKFQGRVTMTRDTSTSTVYMELSSLRSEDTAVYYCTRSNYYGNFDTMDNWGQGTTVTVSSGGSEGKSSGSGSESKSTGGSEIVLTQSPATLSLSPGERATLSCRASSSIRYMNWYQQKPGQAPRRLIYDTSNRATGIPARFSGSGSGTDFTLTISSLEPEDFAVYYCHQRSSYPWTFGGGTKVEIK
Key: 7.33
